- TARGET OR TEST SYSTEM: Transitional endoplasmic reticulum ATPase (Homo sapiens, UniProt P55072, C522A)
- Sequence (P55072 2-806 C522A limits assumed): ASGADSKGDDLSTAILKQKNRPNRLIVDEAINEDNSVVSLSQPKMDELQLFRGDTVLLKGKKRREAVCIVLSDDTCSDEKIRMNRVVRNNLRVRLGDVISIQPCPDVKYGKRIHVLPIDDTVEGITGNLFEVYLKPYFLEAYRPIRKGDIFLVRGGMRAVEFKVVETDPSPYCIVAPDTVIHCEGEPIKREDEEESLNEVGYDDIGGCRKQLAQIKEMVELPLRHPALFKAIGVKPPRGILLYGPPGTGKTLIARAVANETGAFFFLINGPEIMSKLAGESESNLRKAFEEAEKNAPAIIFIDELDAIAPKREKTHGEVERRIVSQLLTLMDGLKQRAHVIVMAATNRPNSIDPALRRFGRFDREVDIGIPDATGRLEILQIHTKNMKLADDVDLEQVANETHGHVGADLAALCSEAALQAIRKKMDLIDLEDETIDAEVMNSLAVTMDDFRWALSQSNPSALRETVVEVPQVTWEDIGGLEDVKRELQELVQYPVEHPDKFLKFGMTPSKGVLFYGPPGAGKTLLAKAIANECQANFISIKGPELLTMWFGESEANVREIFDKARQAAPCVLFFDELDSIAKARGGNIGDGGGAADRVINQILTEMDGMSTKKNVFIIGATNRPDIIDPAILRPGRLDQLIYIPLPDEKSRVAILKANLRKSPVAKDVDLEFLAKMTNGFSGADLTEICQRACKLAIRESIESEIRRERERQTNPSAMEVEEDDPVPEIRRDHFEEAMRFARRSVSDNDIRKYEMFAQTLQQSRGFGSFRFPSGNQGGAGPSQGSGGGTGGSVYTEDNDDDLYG
- ASSAY DETAILS: Inhibition of His6-tagged p97 C522A mutant (unknown origin) expressed in Escherichia coli BL21 (DE3) assessed as reduction in ATPase activity measured after 60 mins by biomol green reagent based assay
ENDPOINT NAME: pIC50
The meaning of pIC50 here: minus log10 of the concentration in molar units.

May I ask what pIC50 has been recorded for `C=CC(=O)Nc1ncnc2c1c(-c1ccccc1)nn2C(C)(C)C` ?
3.96

---

- TARGET OR TEST SYSTEM: Transitional endoplasmic reticulum ATPase (Homo sapiens, UniProt P55072)
- Sequence (P55072 whole entry): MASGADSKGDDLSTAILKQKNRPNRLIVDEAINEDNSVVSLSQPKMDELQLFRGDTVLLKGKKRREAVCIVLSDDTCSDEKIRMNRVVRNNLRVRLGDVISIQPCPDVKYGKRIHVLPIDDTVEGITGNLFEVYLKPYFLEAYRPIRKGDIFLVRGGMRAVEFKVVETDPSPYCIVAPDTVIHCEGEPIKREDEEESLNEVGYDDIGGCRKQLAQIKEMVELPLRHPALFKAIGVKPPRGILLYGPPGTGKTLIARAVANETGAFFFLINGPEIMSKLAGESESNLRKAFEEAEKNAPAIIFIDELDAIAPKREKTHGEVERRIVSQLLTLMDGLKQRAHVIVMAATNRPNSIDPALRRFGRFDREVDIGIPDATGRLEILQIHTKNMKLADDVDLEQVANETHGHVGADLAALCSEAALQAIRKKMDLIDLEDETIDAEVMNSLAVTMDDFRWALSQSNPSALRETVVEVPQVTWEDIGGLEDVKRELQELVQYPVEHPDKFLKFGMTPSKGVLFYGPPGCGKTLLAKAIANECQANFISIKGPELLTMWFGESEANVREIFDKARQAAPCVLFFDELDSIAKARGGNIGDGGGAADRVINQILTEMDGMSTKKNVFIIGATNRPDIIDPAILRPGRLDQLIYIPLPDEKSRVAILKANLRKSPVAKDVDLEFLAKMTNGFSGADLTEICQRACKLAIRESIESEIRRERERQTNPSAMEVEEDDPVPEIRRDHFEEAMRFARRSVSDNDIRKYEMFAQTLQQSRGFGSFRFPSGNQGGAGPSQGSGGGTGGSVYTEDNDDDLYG
- ASSAY DETAILS: Inhibition of His6-tagged p97 (unknown origin) expressed in Escherichia coli BL21 (DE3) assessed as reduction in ATPase activity measured after 60 mins by biomol green reagent based assay
ENDPOINT NAME: pIC50
The meaning of pIC50 here: minus log10 of the concentration in molar units.

# count of solved cases: 3
[[record]]
structure_smiles = "O=[N+]([O-])/C=C/c1cccnc1"
experimental_value = 6.15

[[record]]
structure_smiles = "CC(C)(C)n1nc(-c2ccccc2)c2c(NC(=O)CCl)ncnc21"
experimental_value = 5.35

[[record]]
structure_smiles = "Cc1ccc(C(=O)C#Cc2ccccc2)cc1"
experimental_value = 6.70


Next, consider the following compound.
May I ask what pIC50 has been recorded for `O=[N+]([O-])/C=C/c1ccc(F)c(Br)c1` ?
5.77

---

Some compounds, each annotated with its measured pIC50.
- TARGET OR TEST SYSTEM: Transitional endoplasmic reticulum ATPase (Homo sapiens)
- ASSAY DETAILS: Inhibition of p97 in human HeLa cells assessed as reduction in proteasomal turnover of p97-dependent reporter substrate UbG76V-GFP incubated for 120 mins by GFP fluorescence imaging
The meaning of pIC50 here: minus log10 of the concentration in molar units.

# count of solved cases: 2
[[record]]
compound = "CC1(C)C(N(O)C(=O)Nc2ccc(Cl)cc2)N(c2ccc(Cl)cc2)C(=O)N1CC(=O)N/N=C/C=C/c1ccc([N+](=O)[O-])o1 (stereo not drawn)"
experimental_value = 5.43

[[record]]
compound = "O=[N+]([O-])/C=C/c1ccc2c(c1)OCO2"
experimental_value = 5.80


May I ask what pIC50 has been recorded for `C=CC(=O)N(C(=O)C=C)c1ncnc2c1c(-c1ccc3ccccc3c1)nn2C(C)(C)C` ?
5.60

---

- ASSAY DETAILS: Inhibition of yeast Cdc48 assessed as reduction in ATPase activity measured after 60 mins by biomol green reagent based assay
- Design: species or system Saccharomyces cerevisiae
ENDPOINT NAME: pIC50
The meaning of pIC50 here: minus log10 of the concentration in molar units.

May I ask what pIC50 has been recorded for `C=CC(=O)Nc1ncnc2c1c(-c1ccccc1)nn2C(C)(C)C` ?
3.42

---

- TARGET OR TEST SYSTEM: Transitional endoplasmic reticulum ATPase (Homo sapiens)
- ASSAY DETAILS: Inhibition of His6-tagged p97 (unknown origin) expressed in Escherichia coli BL21 (DE3) assessed as reduction in ATPase activity measured after 60 mins by biomol green reagent based assay
ENDPOINT NAME: pIC50
The meaning of pIC50 here: minus log10 of the concentration in molar units.

# count of solved cases: 3
[[record]]
structure_smiles = "C=CC(=O)Nc1ncnc2c1c(-c1ccc(-c3ccccc3)cc1)nn2C(C)(C)C"
target_or_test_system = "Transitional endoplasmic reticulum ATPase (Homo sapiens)"
endpoint_name = "pIC50"
experimental_value = 5.55

[[record]]
structure_smiles = "C=CC(=O)Nc1ccc2ncnc(Nc3ccc(-c4ccccc4)cc3)c2c1"
target_or_test_system = "Transitional endoplasmic reticulum ATPase (Homo sapiens)"
endpoint_name = "pIC50"
experimental_value = 5.00

[[record]]
structure_smiles = "C=CC(=O)Nc1ncnc2c1c(-c1ccc3ccccc3c1)nn2C(C)(C)C"
target_or_test_system = "Transitional endoplasmic reticulum ATPase (Homo sapiens)"
endpoint_name = "pIC50"
experimental_value = 5.52


May I ask what pIC50 has been recorded for `O=[N+]([O-])/C=C/c1cccc([N+](=O)[O-])c1` ?
5.92

May I ask what pIC50 has been recorded for `COc1cc(/C=C/[N+](=O)[O-])ccc1OC(C)=O` ?
5.44

May I ask what pIC50 has been recorded for `COc1cc(/C=C/[N+](=O)[O-])ccc1OC(=O)c1ccccc1` ?
5.70

May I ask what pIC50 has been recorded for `O=[N+]([O-])/C=C/c1ccc2c(c1)OCO2` ?
5.77

May I ask what pIC50 has been recorded for `COc1ccc(/C=C/[N+](=O)[O-])cc1OC` ?
5.51

May I ask what pIC50 has been recorded for `O=[N+]([O-])/C=C/c1c(F)c(F)c(F)c(F)c1F` ?
5.62
